# Tested on: Staphylococcus aureus
# measurementNotes: Minimal inhibitory concentration against Staphylococcus aureus (Range is 25-50 uM)
# Type: functional
attributeMeasured: MIC (µM)
Response body: numeric value in µM, unit text excluded.

INSERT INTO assay_data (compound, unitinfo, datavalue) VALUES
  ('CC(C)c1ccc2c(c1)CCC1C(C)(C/N=C(\S)NNC(=O)Cn3c(C4CCNCC4)nc4cc(Cl)c(Cl)cc43)CCC[C@]21C (stereo partly drawn)', 'µM', 50),
  ('O=C(Cn1c(C2CCNCC2)nc2cc(Cl)c(Cl)cc21)NNC(=S)Nc1ccccc1', 'µM', 50),
  ('O=C(Cn1c(C2CCNCC2)nc2cc(Cl)c(Cl)cc21)N/N=C/c1cccc([N+](=O)[O-])c1', 'µM', 50),
  ('O=C(Cn1c(C2CCNCC2)nc2cc(Cl)c(Cl)cc21)N/N=C/c1ccc2ccccc2n1', 'µM', 50);

# returns recorded MIC (system: Staphylococcus aureus) for O=C(Cn1c(C2CCNCC2)nc2cc(Cl)c(Cl)cc21)N/N=C/c1cccc(OC(F)(F)F)c1
50

Also check COc1cccc(/C=N/NC(=O)Cn2c(C3CCNCC3)nc3cc(Cl)c(Cl)cc32)c1
50

Also check Clc1cc2nc(C3CCNCC3)n(CCCn3c(C4CCNCC4)nc4cc(Cl)c(Cl)cc43)c2cc1Cl
50

Also check O=C1c2cc(Cl)c([N+](=O)[O-])cc2C(=O)N1CCCCCn1c(C2CCNCC2)nc2cc(Cl)c(Cl)cc21
50
